Test: Pharmacokinetics in SK-OV-3 tumor-bearing mice
Type: in vivo
Conditions: female, athymic, mouse, blood, po, 50 mg/kg, PO, BID; day 18; read-out: AUC0-4 h
measured-property: AUC(0-t) (ng·h/mL)

# compound, measured-number
rows = [
    ("COCC(=O)NC/C=C/c1ccc2ncnc(Nc3ccc(Oc4ccc(C)nc4)c(C)c3)c2c1 [Test Compound]", 4180),
]

---

Assay: Pharmacokinetics in BT-474 tumor-bearing mice
Format: in vivo
Details: female, athymic, mouse, blood, po, 30 mg/kg, BID, day 22, estimated based on the extrapolated concentration at 4 hr from 2 hr and 8 hr exposures, read-out: AUC0-4 h

# smiles-representation, AUC(0-t) / ng·h/mL
data = [
    ("COCC(=O)NC/C=C/c1ccc2ncnc(Nc3ccc(Oc4ccc(C)nc4)c(C)c3)c2c1", 1440),
]

---

Assay: Pharmacokinetics in MDA-MB-453 tumor-bearing mice
Type: in vivo
Conditions: female, athymic, mouse, blood, po, 100 mg/kg, PO, QD; day 29; read-out: AUC0-4 h

# smiles-representation, AUC(0-t), ng·h/mL
rows = [
    ("COCC(=O)NC/C=C/c1ccc2ncnc(Nc3ccc(Oc4ccc(C)nc4)c(C)c3)c2c1", 12500),
]

---

Experiment: Pharmacokinetics in SK-OV-3 tumor-bearing mice
Format: in vivo
Details: female, athymic, mouse, blood, po, 100 mg/kg, PO, BID; day 18; read-out: AUC0-4 h

# compound, AUC(0-t), ng·h/mL
data = [
    ("COCC(=O)NC/C=C/c1ccc2ncnc(Nc3ccc(Oc4ccc(C)nc4)c(C)c3)c2c1 [Test Compound]", 9330),
]

---

Test: Pharmacokinetics in MDA-MB-453 tumor-bearing mice
Assay type: in vivo
Conditions: female, athymic, mouse, blood, po, 100 mg/kg, PO, QD; day 29; read-out: Cmax 0.5 h
measured-property: Cmax (ng/mL)

# smiles-representation, readout-unit, measured-number
records = [
    ("COCC(=O)NC/C=C/c1ccc2ncnc(Nc3ccc(Oc4ccc(C)nc4)c(C)c3)c2c1", "ng/mL", 9770),
]

---

Experiment: Pharmacokinetics in SK-OV-3 tumor-bearing mice
Format: in vivo
Conditions: female, athymic, mouse, blood, po, 100 mg/kg, PO, BID; day 18; read-out: Cmax 0.5 h

# smiles-representation, readout-unit, Cmax
records = [
    ("COCC(=O)NC/C=C/c1ccc2ncnc(Nc3ccc(Oc4ccc(C)nc4)c(C)c3)c2c1", "ng/mL", 8060),
]

---

Assay: Pharmacokinetics in MDA-MB-453 tumor-bearing mice
Assay type: in vivo
Settings: female, athymic, mouse, blood, po, 100 mg/kg, PO, BID; day 29; read-out: AUC0-4 h
Procedure: Study Design: Exponentially growing MDA-MB-453 cells (DMEM/F12 with 10% FBS, and pen/strep [Gibco]) were harvested and inoculated SC (5 million cells/animal) into female athymic mice. MDA-MB-453 tumor bearing mice (˜100 mm^3 in size, N=64) were randomized in 8 groups consisting 8 animals each. […] Tumor volume was calculated by the following formula: Tumor volume (mm^3)═(W×W)/2×L (L=length & W=width). […]
measured-property: AUC(0-t) (ng·h/mL)

# smiles-representation, measured-property, measured-number
records = [
    ("COCC(=O)NC/C=C/c1ccc2ncnc(Nc3ccc(Oc4ccc(C)nc4)c(C)c3)c2c1", "AUC(0-t)", 6840),
]

---

Experiment: Pharmacokinetics in BT-474 tumor-bearing mice
Type: in vivo
Details: female, athymic, mouse, blood, po, 30 mg/kg, BID, day 22, read-out: Cmax 0.5 h
measured-property: Cmax (ng/mL)

# compound, measured-property, measured-number
records = [
    ("COCC(=O)NC/C=C/c1ccc2ncnc(Nc3ccc(Oc4ccc(C)nc4)c(C)c3)c2c1 [Test Compound]", "Cmax", 1570),
]

---

Assay: Pharmacokinetics in SK-OV-3 tumor-bearing mice
Type: in vivo
Conditions: female, athymic, mouse, blood, po, 25 mg/kg, PO, BID; day 18; read-out: Cmax 0.5 h
measured-property: Cmax (ng/mL)

# smiles-representation, measured-property, measured-number
measured = [
    ("COCC(=O)NC/C=C/c1ccc2ncnc(Nc3ccc(Oc4ccc(C)nc4)c(C)c3)c2c1", "Cmax", 1780),
]

---

Test: Pharmacokinetics in BT-474 tumor-bearing mice
Format: in vivo
Settings: female, athymic, mouse, blood, po, 50 mg/kg, QD, day 22, estimated based on the extrapolated concentration at 4 hr from 2 hr and 8 hr exposures, read-out: AUC0-4 h
measured-property: AUC(0-t) (µg·h/mL)

# smiles-representation, readout-unit, measured-number
measured = [
    ("COCC(=O)NC/C=C/c1ccc2ncnc(Nc3ccc(Oc4ccc(C)nc4)c(C)c3)c2c1", "µg·h/mL", 4.22),
]

---

Experiment: in vivo
Details: athymic, mouse, plasma

# compound, AUC(0-t)
data = [
    ("COCC(=O)NC/C=C/c1ccc2ncnc(Nc3ccc(Oc4ccc(C)nc4)c(C)c3)c2c1 [Test Compound]", "~985 ng·h/mL"),
]

---

Assay: Pharmacokinetics in SK-OV-3 tumor-bearing mice
Format: in vivo
Conditions: female, athymic, mouse, blood, po, 100 mg/kg, PO, QD; day 18; read-out: Cmax 0.5 h

# smiles-representation, Cmax, µg/mL
rows = [
    ("COCC(=O)NC/C=C/c1ccc2ncnc(Nc3ccc(Oc4ccc(C)nc4)c(C)c3)c2c1", 12.1),
]

---

Test: Pharmacokinetics in BT-474 tumor-bearing mice
Format: in vivo
Conditions: female, athymic, mouse, blood, po, 30 mg/kg, QD, day 22, estimated based on the extrapolated concentration at 4 hr from 2 hr and 8 hr exposures, read-out: AUC0-4 h
measured-property: AUC(0-t) (ng·h/mL)

# compound, measured-property, measured-number
records = [
    ("COCC(=O)NC/C=C/c1ccc2ncnc(Nc3ccc(Oc4ccc(C)nc4)c(C)c3)c2c1 [Test Compound]", "AUC(0-t)", 1280),
]

---

Experiment: Pharmacokinetics in MDA-MB-453 tumor-bearing mice
Assay type: in vivo
Details: female, athymic, mouse, blood, po, 25 mg/kg, PO, BID; day 29; read-out: AUC0-4 h

# smiles-representation, AUC(0-t)
rows = [
    ("COCC(=O)NC/C=C/c1ccc2ncnc(Nc3ccc(Oc4ccc(C)nc4)c(C)c3)c2c1", "857 ng·h/mL"),
]

---

Assay: Pharmacokinetics in SK-OV-3 tumor-bearing mice
Format: in vivo
Details: female, athymic, mouse, blood, po, 50 mg/kg, PO, QD; day 18; read-out: Cmax 0.5 h
measured-property: Cmax (ng/mL)

# smiles-representation, measured-number
data = [
    ("COCC(=O)NC/C=C/c1ccc2ncnc(Nc3ccc(Oc4ccc(C)nc4)c(C)c3)c2c1", 3640),
]

---

Experiment: Pharmacokinetics in BT-474 tumor-bearing mice
Format: in vivo
Conditions: female, athymic, mouse, blood, po, 15 mg/kg, BID, day 22, read-out: Cmax 0.5 h

# compound, Cmax
measured = [
    ("COCC(=O)NC/C=C/c1ccc2ncnc(Nc3ccc(Oc4ccc(C)nc4)c(C)c3)c2c1 [Test Compound]", "616 ng/mL"),
]

---

Test: Pharmacokinetics in MDA-MB-453 tumor-bearing mice
Format: in vivo
Settings: female, athymic, mouse, blood, po, 25 mg/kg, PO, BID; day 29; read-out: Cmax 0.5 h
measured-property: Cmax (ng/mL)

# smiles-representation, readout-unit, measured-number
data = [
    ("COCC(=O)NC/C=C/c1ccc2ncnc(Nc3ccc(Oc4ccc(C)nc4)c(C)c3)c2c1", "ng/mL", 952),
]

---

Test: Pharmacokinetics in MDA-MB-453 tumor-bearing mice
Format: in vivo
Conditions: female, athymic, mouse, blood, po, 50 mg/kg, PO, BID; day 29; read-out: AUC0-4 h

# smiles-representation, AUC(0-t)
records = [
    ("COCC(=O)NC/C=C/c1ccc2ncnc(Nc3ccc(Oc4ccc(C)nc4)c(C)c3)c2c1", "2040 ng·h/mL"),
]

---

Assay: Pharmacokinetics in SK-OV-3 tumor-bearing mice
Assay type: in vivo
Conditions: female, athymic, mouse, blood, po, 50 mg/kg, PO, QD; day 18; read-out: AUC0-4 h

# smiles-representation, readout-unit, AUC(0-t)
measured = [
    ("COCC(=O)NC/C=C/c1ccc2ncnc(Nc3ccc(Oc4ccc(C)nc4)c(C)c3)c2c1", "ng·h/mL", 3410),
]

---

Assay: Pharmacokinetics in BT-474 tumor-bearing mice
Format: in vivo
Conditions: female, athymic, mouse, blood, po, 15 mg/kg, QD, day 22, read-out: Cmax 0.5 h
measured-property: Cmax

# molecule, result
measured = [
    ("COCC(=O)NC/C=C/c1ccc2ncnc(Nc3ccc(Oc4ccc(C)nc4)c(C)c3)c2c1 [Test Compound]", "0.25 µg/mL"),
]

---

Assay: Pharmacokinetics in BT-474 tumor-bearing mice
Assay type: in vivo
Settings: female, athymic, mouse, blood, po, 50 mg/kg, QD, day 22, read-out: Cmax 0.5 h

# molecule, Cmax
records = [
    ("COCC(=O)NC/C=C/c1ccc2ncnc(Nc3ccc(Oc4ccc(C)nc4)c(C)c3)c2c1 [Test Compound]", "5890 ng/mL"),
]
